species on record: Oryctolagus cuniculus; assay: The D2 efficacy was evaluated in isolated perfused rabbit ear artery test; type: functional; conditions: read-out: ED50 (the source's name)
MEASURE: pEC50
pEC50 (log units): -log10 of the concentration in mol/L.

## Input Answer with the recorded pEC50 for the compound listed here: NC1CCc2cc(O)c(O)c(Cl)c2C1 (stereo unspecified)
## Output 3.27

====

molecular target: UniProt P18901; assay: Affinity for Dopamine receptor D1 binding sites was evaluated in a test involving displacement of [3H]- fenoldopam in rat striatum; assay type: tissue-based
Sequence (P18901 whole entry): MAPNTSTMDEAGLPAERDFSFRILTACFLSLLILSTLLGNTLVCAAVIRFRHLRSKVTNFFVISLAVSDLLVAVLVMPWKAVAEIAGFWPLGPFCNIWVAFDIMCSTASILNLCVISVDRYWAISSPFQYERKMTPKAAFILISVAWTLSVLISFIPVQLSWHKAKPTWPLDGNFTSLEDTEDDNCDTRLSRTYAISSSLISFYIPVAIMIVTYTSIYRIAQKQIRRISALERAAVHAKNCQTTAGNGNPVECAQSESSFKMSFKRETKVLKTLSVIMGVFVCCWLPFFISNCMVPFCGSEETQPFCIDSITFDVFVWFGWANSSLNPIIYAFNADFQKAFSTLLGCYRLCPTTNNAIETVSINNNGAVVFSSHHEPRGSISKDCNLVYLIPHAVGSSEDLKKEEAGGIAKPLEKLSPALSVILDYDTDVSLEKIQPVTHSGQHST
Hi! Could you tag entries with K Bind below 0.3 µM as YES, and those at or above as NO? Much appreciated.

Please review the entries below; each comes with its answer.
INSERT INTO assay_data (compound, class_name) VALUES
  ('CN(C)C1CCc2cc(F)c(O)cc2C1 (stereo not given)', 'NO'),
  ('Oc1ccc(CCNC2CCc3cc(O)c(O)c(Cl)c3C2)cc1 (stereo not given)', 'YES'),
  ('NC1CCc2cc(Cl)c(O)c(Cl)c2C1 (stereo not given)', 'NO'),
  ('CCCN(CCC)C1CCc2c(ccc(O)c2Cl)C1 (stereo not given)', 'NO'),
  ('NC1CCc2cc(O)c(O)c(Cl)c2C1 (stereo not given)', 'YES');

## Input Check if K Bind falls below 0.3 µM for CCCN(CCc1ccc(O)cc1)C1CCc2cc(O)c(O)c(Cl)c2C1 (stereo not given) .
## Output YES

## Input Consider CCCN(CCC)C1CCc2cc(O)c(Cl)cc2C1 (stereo not given) . Does its K Bind lie strictly below 0.3 µM?
## Output NO
